Target: Human AMPK α2β2γ1 (Homo sapiens, UniProt O43741+P54646)
Construct: The full length cDNAs of human AMPK β2 (NM_005399.3) and human AMPK α2 (NM_006252.3); The full length cDNAs of human AMPK β2 (NM_005399.3); the full length cDNA of human AMPK γ1 (NM_002733.3) had been inserted into pET28b(+); 6×His (N); made in house; host or cells: Escherichia coli BL21 CodonPlus (DE3)-RIL
Sequence (P54646 whole entry): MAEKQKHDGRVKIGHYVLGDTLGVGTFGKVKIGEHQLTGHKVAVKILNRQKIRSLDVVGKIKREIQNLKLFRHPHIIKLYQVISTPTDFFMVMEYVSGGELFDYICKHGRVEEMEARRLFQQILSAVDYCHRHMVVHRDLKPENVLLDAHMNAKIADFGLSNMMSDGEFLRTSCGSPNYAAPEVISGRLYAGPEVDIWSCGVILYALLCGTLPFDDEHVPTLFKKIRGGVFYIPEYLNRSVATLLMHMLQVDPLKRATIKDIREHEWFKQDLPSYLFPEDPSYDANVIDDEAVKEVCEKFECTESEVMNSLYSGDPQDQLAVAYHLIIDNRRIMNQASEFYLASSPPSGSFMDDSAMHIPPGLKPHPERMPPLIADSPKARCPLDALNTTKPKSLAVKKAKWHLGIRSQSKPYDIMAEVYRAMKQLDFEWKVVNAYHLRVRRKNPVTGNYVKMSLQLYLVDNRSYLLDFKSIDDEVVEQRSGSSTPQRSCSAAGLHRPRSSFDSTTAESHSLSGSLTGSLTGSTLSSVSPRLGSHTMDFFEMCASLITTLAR
Sequence (O43741 whole entry): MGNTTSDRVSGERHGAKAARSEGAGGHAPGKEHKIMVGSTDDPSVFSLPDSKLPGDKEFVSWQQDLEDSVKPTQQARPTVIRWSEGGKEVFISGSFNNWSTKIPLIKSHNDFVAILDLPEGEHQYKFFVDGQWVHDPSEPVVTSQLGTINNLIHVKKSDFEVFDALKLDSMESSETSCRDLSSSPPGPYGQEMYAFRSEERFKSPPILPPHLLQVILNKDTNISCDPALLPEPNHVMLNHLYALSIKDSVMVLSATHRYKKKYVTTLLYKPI
Sequence (P54619 whole entry partner): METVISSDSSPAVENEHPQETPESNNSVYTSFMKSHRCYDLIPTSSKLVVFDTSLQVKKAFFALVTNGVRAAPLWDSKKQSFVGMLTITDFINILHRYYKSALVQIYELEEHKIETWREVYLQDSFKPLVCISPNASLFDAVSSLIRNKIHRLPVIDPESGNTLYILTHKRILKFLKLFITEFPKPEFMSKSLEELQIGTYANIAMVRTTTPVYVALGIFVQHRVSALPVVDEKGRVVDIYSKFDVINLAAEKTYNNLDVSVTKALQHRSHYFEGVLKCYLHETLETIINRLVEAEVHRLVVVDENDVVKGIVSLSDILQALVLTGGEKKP
Assay: Test Example 2: activation of phosphorylated human AMPK α2β2γ1 (mobility-shift kinase assay, FL-Peptide 7)
Format: biochemical
Conditions: maximum rate of increase in activity within the measurement range, control = 100%; read-out: Emax
Description: The full length cDNAs of human AMPK β2 (NM_005399.3) and human AMPK α2 (NM_006252.3) were inserted into the MCS1 and MCS2 of the pETDuet-1 vector to prepare a human AMPK β2 and human AMPK α2 (6×His tag at the 5′ terminus) expressing plasmid. […] To detect phosphorylated fluorescent substrates, the reaction mixture was applied to a measuring device, LabChip EZ Reader II manufactured by Caliper Life Science, Inc., for detecting fluorescence by using differences in mobility due to differences in charge. […]
assay-endpoint: Emax (%)
Reply with just the number (in %).

Reference set (2 entries):
O[C@@H]1CO[C@H]2[C@@H]1OC[C@H]2Oc1cc2nc(-c3ccc(-c4ccc(Oc5ccncc5)cc4)cc3)c(F)cc2[nH]1 ... 613
CCO[C@H]1[C@@H](CO)OC[C@H]1Oc1cc2nc(-c3ccc(-c4ccc(N=S(C)(C)=O)cc4)cc3)c(F)cc2[nH]1 ... 507

Can you share its Emax? I mean this compound: CC(=O)N1CCC(Oc2ccc(-c3ccc(-c4nc5cc(O[C@@H]6CO[C@H]7[C@@H]6OC[C@H]7O)[nH]c5cc4F)cc3)cc2)C1 (stereo partly drawn) 332

Where do these numbers come from? They come from patent US10478425B2.
